Below: a set of entries, each annotated with reported response.
Assay: yeast V-ATPase proton transport modulators, S. cerevisiae, pHLuorin, HTS validation (AID 504600);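 also: plate controls were DMSO for no effect and reference compound for full effect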
Details: S. cerevisiae pHLuorin cytosolic pH, at 10 µM, stronger effect = higher value
Measured Attribute: response (%)

>>> print(df.to_string())
                                   compound  measured_attribute  result_units  measured_result
0  O=c1[nH]cnc2c1ncn2[C@@H]1O[C@H](CO)[C@@H](O)[C@H]1O            response             %            -0.11
1  CCN(Cc1cnn(C)c1)Cc1nc(C(c2ccccc2)c2ccccc2)no1            response             %            -8.11
2  OC[C@@H](O)[C@@H](O[C@H]1O[C@H](CO)[C@@H](O)[C@H](O)[C@H]1O)[C@H](O)[C@@H](O)CO            response             %            -1.56
3  COCCc1ccc(OCC(O)CNC(C)C)cc1 (stereo not given)            response             %             1.04
4  CN1CCCC(OC(=O)c2ccc3c(c2)OCCO3)C1 (stereo not given)            response             %            -2.88
5       Cc1ccccc1NC(=O)C1c2ccccc2Oc2ccccc21            response             %             -0.9
6  CC(=O)OC[C@H]1O[C@@H](n2ncc(=O)[nH]c2=O)[C@H](OC(C)=O)[C@@H]1OC(C)=O            response             %            -0.17
7  O=C1CCCN1CCCn1cnc2c([nH]c3ccc(F)cc32)c1=O            response             %             1.63
8  CC(COc1ccccc1)NC(C)C(O)c1ccc(O)cc1 (stereo not given)            response             %            -3.92
9  Cc1ccc2nc3c(cc(C(=O)NCC4CCCO4)c(=N)n3CCCOC(C)C)c(=O)n2c1 (stereo not given)            response             %            -20.8

---

Measured GFP response vs DMSO of individual entries
Assay: modulators of MEP2-GFP levels in yeast, confirmation, S. cerevisiae, flow cytometry GFP, cherry picks (AID 2272);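 also: ratio of well signal to plate DMSO mean so 100% equals DMSO level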
Settings: S. cerevisiae MEP2-GFP strain, 3 h, at 10 µM, stronger effect = higher value
Measured Attribute: GFP response vs DMSO (%)

>>> df
                                   compound  measured_result
0  NC1=NC(=O)C(CC(=O)c2ccc(Cl)cc2)S1 (stereo unspecified)              102
1  CCCCNc1c(-c2ccc(SC(C)CC)cc2)nc2ccccn12 (stereo unspecified)              109
2  Cc1ccc(N2CC(C(=O)OCc3nnc(-c4ccccc4)o3)CC2=O)cc1 (stereo unspecified)              106
3  COc1ccc(OC)c(C(=O)/C=C/c2ccccc2C(F)(F)F)c1              105
4  O=C(NCC(c1ccc(F)cc1)N1CCOCC1)c1cc(F)c(F)c(F)c1F (stereo unspecified)              101
5  COc1ccc(-c2nc3cc(C)ccn3c2NCC2CCCO2)cc1OC (stereo unspecified)               99

---

Consider the following molecules and their measured GFP response, % of DMSO readings.
Assay: modulators of CIT2-GFP expression in yeast, confirmation, S. cerevisiae, GFP fusion, cherry picks, mother/daughter gates (AID 2274)
Conditions: S. cerevisiae CIT2-GFP strain, flow cytometry, 3 h; measured here: daughter cell gate; at 10 µM; stronger effect = higher value
Measured Attribute: GFP response, % of DMSO (%)

                                    molecule  result_units  measured_result
 0  COc1cc(NC(=O)c2cccc(F)c2)ccc1NC(=O)c1cc2ccccc2o1             %             98.3
 1  COc1ccc(CNC(=O)c2c(O)c3ccccc3n(C)c2=O)cc1OC             %              105
 2  COc1ccc(OCC(O)CNC(=O)/C=C/c2cccc([N+](=O)[O-])c2)cc1 (centres undefined)             %              103
 3  CC(=O)Oc1c(C)cc(Cl)cc1C(=O)Nc1ccc([N+](=O)[O-])cc1Cl             %             93.7
 4  CCCc1cc(N2CCN(c3ccccn3)CC2)n2nc(C)c(-c3ccccc3)c2n1             %              154
 5   COC(=O)c1ccc(/C=N/NC(=O)c2cccc(F)c2)cc1             %              100
 6             Cc1noc2ncnc(Sc3ccc(Br)cc3)c12             %              106
 7      CCn1c(=O)c(C(=O)NC(C)C)c(O)c2ccccc21             %             99.7
 8   C=CCOc1ccccc1C(=O)/C=C1/C(=O)Nc2ccccc21             %             95.6
 9  CCOC(=O)Cc1csc(NC(=O)COc2ccc(N(C)S(=O)(=O)c3cccs3)cc2)n1             %             97.2
10        O=C(N=Nc1c(O)[nH]c2ccccc12)c1ccco1             %              102
11    CN1c2ccsc2/C(=N/Nc2ccc(F)cc2)CS1(=O)=O             %              108
12           O=C(Nc1nc(-c2ccccc2)cs1)c1cccs1             %             94.8
13  Cc1ccc(-c2nc(NC(=O)c3nn(C)cc3[N+](=O)[O-])sc2C)cc1C             %             94.6
14  CCn1c(=O)c(C(=O)Nc2nc3ccccc3[nH]2)c(O)c2ccccc21             %             99.1
15    Cc1cc(N2CCOCC2)n2nc(C)c(-c3ccccc3)c2n1             %             97.4
16        C=CCOc1ccc(/C=C2\N=C(C)OC2=O)cc1OC             %              106
17       CCCCc1nnc(NC(=O)c2nc3nccc(C)n3n2)s1             %              109
18  COc1cccc2c1Oc1ncccc1N(C(=O)CCC(=O)NCc1ccc(C)cc1)C2             %             99.2
19  COc1ccc(NC(=O)COC(=O)c2ccco2)c([N+](=O)[O-])c1             %             92.7
20    C/C(=N\NC(=O)c1ccc(Cl)c(Cl)c1)c1ccccn1             %             97.6
21  COc1ccc(/C=C2\Sc3ccc(C(=O)N4CCc5ccccc5C4)cc3N(C)C2=O)cc1             %             99.1
22  COc1ccc(C2N(c3ccc(Cl)cc3)N=C(C(C)=O)N(C)N2C(C)=O)cc1 (centres undefined)             %              106
23          CCOC(=O)C(=Cc1ccc(F)cc1)C(=O)OCC             %             94.8
24  CCOC(=O)CSC1=NC(=O)/C(=C\c2ccc(Cl)cc2)S1             %             81.6
25  COc1ccc(N2CCN(C(=O)c3ccccc3)CC2)c([N+](=O)[O-])c1             %             93.8
26    C[n+]1ccc(/C=C/c2c[nH]c3ccc(F)cc23)cc1             %              108
27  CCCC(=O)Nc1ccc(C(=O)/C=C/c2ccc(SC)cc2)cc1             %             94.8
28  Cc1cccn2c(=O)c(/C=C(\C#N)C(=O)NC3CCS(=O)(=O)C3)c(N3CC(C)OC(C)C3)nc12 (centres undefined)             %              103
29  Oc1c(C(Nc2nc3ccccc3s2)c2ccco2)ccc2cccnc12 (centres undefined)             %              103
30  Cc1cc(O)c(C(=O)/C=C/c2cccc([N+](=O)[O-])c2)c(=O)o1             %             90.5
31        COc1ccc(Br)cc1/C=N/NC(=O)Cn1nnnc1N             %              103
32  CCOC(=O)c1sc(NC(=O)CN2C(=O)c3cccc4cccc(c34)C2=O)nc1C             %              101
33  CN1/C(=C\C(=O)c2cccc(S(=O)(=O)N3CCCCC3)c2)C(C)(C)c2ccccc21             %             99.1
34  CCOc1cc(/C=C2\C(=N)N3N=C(S(=O)(=O)CC)SC3=NC2=O)ccc1OC(=O)c1ccco1             %              113
35      O=C(O)Cc1sc(Nc2ccc(F)cc2)nc1-c1cccs1             %              103
36            CSC1=NS(=O)(=O)c2c(C)nn(C)c2S1             %             90.5
37  Cc1cccc(Cn2cc(/C=C/[N+](=O)[O-])c3ccccc32)c1             %             95.6
38  CCc1nnc(NC(=O)c2ccc(S(=O)(=O)N(C)Cc3ccccc3)cc2)o1             %             99.7
39  COc1cccc(-c2nnc(NC(=O)c3ccc(S(=O)(=O)N4CC(C)OC(C)C4)cc3)o2)c1 (centres undefined)             %             97.4
40  COc1ccccc1-c1nnc(NC(=O)c2ccc3c(c2)OCO3)s1             %              101
41  Cc1ccc(C(=O)N2c3ccccc3NC(=O)C2C)cc1 (centres undefined)             %             94.8
42  O=C(CSCc1cccc(Br)c1)N=Nc1c(O)[nH]c2ccccc12             %              110
43  CCc1nnc(NC(=O)c2nc(S(=O)(=O)Cc3ccccc3)ncc2Cl)s1             %              103
